- Tested on: methylphenidate
- protocol.summary: Methylphenidate antagonism in mice (rapid screening test for neuroleptic drugs)
- Type: in vivo, NMRI male mice
- experimental.setup: Mus musculus, ip; 2 h after i.p. injection of test substance; methylphenidate 60 mg/kg s.c.; mice; read-out: Methylphenidate Antagonism ED50, 2h
Mark T only for ED50 values smaller than 0.1 mg/kg; exact matches and larger values are F.

molecule	test.target	assigned.class
CN1CCN(CCCN2c3ccccc3Sc3ccc(S(=O)(=O)N(C)C)cc32)CC1 [Thioproperazine]	methylphenidate	F
CN(C)CCCN1c2ccc(F)cc2Sc2ccc(Cl)cc21 [Lu 10-152]	methylphenidate	F
CC(=O)c1ccc2c(c1)N(CCCN1CCN(CCO)CC1)c1ccc(F)cc1S2 [Lu 11-087]	methylphenidate	T
OCCN1CCN(CCCN2c3ccc(F)cc3Sc3ccc(Cl)cc32)CC1 [Lu 10-125]	methylphenidate	T
CN1CCN(CCCN2c3ccc(F)cc3Sc3ccc(S(=O)(=O)N(C)C)cc32)CC1 [Lu 11-075]	methylphenidate	F
OCCN1CCN(CCCN2c3ccccc3Sc3ccc(C(F)(F)F)cc32)CC1 [Fluphenazine]	methylphenidate	T
CC(=O)c1ccc2c(c1)N(CCCN1CCN(CCO)CC1)c1ccccc1S2 [Acetophenazine]	methylphenidate	F
OCCN1CCN(CCCN2c3ccc(F)cc3Sc3ccc(C(F)(F)F)cc32)CC1 [Lu 10-116]	methylphenidate	F

These entries and their values trace back to patent US3966930A.
